- Test System: T1, huNav1.7α+β1-β2-β3 (human, UniProt Q15858 1-1988; Q07699 19-218; O60939 30-215; Q9NY72 23-215)
- T1 construct: 5N11S variant; also called huNav1.7-beta1-beta2-beta3; huNav1.7α+Navβ1-Navβ2-Navβ3
- Assay Text: binding FACS, CHO FlpIn cells
Measurement Type: EC50 (nM)

[[record]]
binder = "F010301309 (VHH, vs 387G05: L29V) VHH: EVQLVESGGGLVQAGGSLRLSCDASGRIVRIGYMRWHRQGAGKQREFVARITDDSATDYADSVKGRFTISRDNAKNTVYLQMNNLNPEDTAVYYCEALVTASVRGGSIHSGTYWGRGTLVTVSS"
measurement_type = "EC50"
endpoint_value = 5.4


[a] F010301372 (VHH, vs 387G05: S100dG) VHH: EVQLVESGGGLVQAGGSLRLSCDASGRILRIGYMRWHRQGAGKQREFVARITDDSATDYADSVKGRFTISRDNAKNTVYLQMNNLNPEDTAVYYCEALVTASVRGGGIHSGTYWGRGTLVTVSS
[b] F010301563 (VHH, also called F0103387G05(D23A, D58G); F0103301563) VHH: EVQLVESGGGLVQAGGSLRLSCAASGRILRIGYMRWHRQGAGKQREFVARITDDSATGYADSVKGRFTISRDNAKNTVYLQMNNLNPEDTAVYYCEALVTASVRGGSIHSGTYWGRGTLVTVSS
Req: Hi! Which is lower in terms of EC50, the first one a or the second one b ? Write down the label attached to your selection.
Resp: b
(b: 1.9 nM, a: 4.5 nM)

[A] F010301445 (VHH, vs 387G05: S100dY) VHH: EVQLVESGGGLVQAGGSLRLSCDASGRILRIGYMRWHRQGAGKQREFVARITDDSATDYADSVKGRFTISRDNAKNTVYLQMNNLNPEDTAVYYCEALVTASVRGGYIHSGTYWGRGTLVTVSS
[B] F010301425 (VHH, vs 387G05: G100bV) VHH: EVQLVESGGGLVQAGGSLRLSCDASGRILRIGYMRWHRQGAGKQREFVARITDDSATDYADSVKGRFTISRDNAKNTVYLQMNNLNPEDTAVYYCEALVTASVRVGSIHSGTYWGRGTLVTVSS
Req: # compare EC50 for A vs B ; return the one with the smaller value Pick one; state its label.
Resp: A
